Test: physchem
Format: physicochemical
Conditions: buffer, pH 3.1
Description: However, administration as a solid or semi-solid dosage form and/or with a high-fat meal may maximize bioavailability by increasing the residence time of BH4 in the acidic milieu of the stomach and upper gastrointestinal tract (GIT) where BH4 is chemically stable. […] At pH 3.1, which is within realm of the typical pH of the stomach in normal volunteers, the stability of BH4 at a concentration of 1 mg/mL is over 3 hours. […]
Parameter: half-life (days)

| Smiles Code | Parameter | Result Number |
| --- | --- | --- |
| C[C@H](O)[C@H](O)[C@H]1CNc2nc(N)[nH]c(=O)c2N1 | half-life | 12.3 |
